Tested on: P-glycoprotein (Pgp)
Test: Pgp-induction assay, rhodamine123 (Rh123) cell exclusion method in LS180 cells
Assay type: cell-based
Conditions: LS180 cells, 48 h treatment, Rh123 fluorescence; values in text; read-out: EC50 for p-glycoprotein induction activity
pEC50: −log10 of the molar value.
// reported pEC50 for each item listed

compound	pEC50
CC(C)=CCOc1ccc(C(=O)C2=C3OC(C)(C)C(CC=C(C)C)CC34CC(CC=C(C)C)C(C)(C)C(CC=C(C)C)(C2=O)C4=O)cc1OCC=C(C)C (stereo not drawn)	8.54
C=C(C)C(CC=C(C)C)CC12CC(CC=C(C)C)C(C)(C)C(CC=C(C)C)(C(=O)C(C(=O)c3ccc(OCc4ccccc4[N+](=O)[O-])c(OCc4ccccc4[N+](=O)[O-])c3)=C1O)C2=O (stereo not drawn) [Compound 1g, 3′,4′-di-[O-(2″-nitro-benzyl)]-garcinol]	8.17
C=C(C)C(CC=C(C)C)CC12CC(CC=C(C)C)C(C)(C)C(CC=C(C)C)(C(=O)C(C(=O)c3ccc(OC(=O)CCC)c(OC(=O)CCC)c3)=C1O)C2=O (stereo not drawn)	8.05
